Target: Human immunodeficiency virus type 1 protease (Human immunodeficiency virus 1, UniProt Q72874)
Experiment: Binding affinity for HIV-1 protease
Measured metric: Ki (nM)
Report the figure in nM without appending any unit label.

In the examples that follow, each entry is paired with its recorded Ki.
[[record]]
molecule = "CC(C)(C)[C@H](NC(=O)CCc1nc2ccccc2[nH]1)C(=O)N[C@@H](Cc1ccccc1)[C@H](O)[C@@H](CO)[C@H](Cc1ccccc1)NC(=O)[C@@H](NC(=O)CCc1nc2ccccc2[nH]1)C(C)(C)C"
unit_of_measure = "nM"
recorded_number = 160

[[record]]
molecule = "CC(C)[C@H](NC(=O)OCc1ccccc1)C(=O)N[C@@H](Cc1ccccc1)[C@@H](O)[C@H](CO)[C@H](Cc1ccccc1)NC(=O)[C@H](CC(N)=O)NC(=O)OCc1ccccc1"
unit_of_measure = "nM"
recorded_number = 340

[[record]]
molecule = "CC(C)C(NC(=O)OCc1ccccc1)C(=O)N[C@@H](Cc1ccccc1)[C@@H](C(=O)O)[C@H](O)[C@H](Cc1ccccc1)NC(=O)[C@@H](NC(=O)OCc1ccccc1)C(C)C (some centres undefined)"
unit_of_measure = "nM"
recorded_number = 430


For the molecule shown here, `CC(C)(C)[C@H](NC(=O)CCc1nc2ccccc2[nH]1)C(=O)N[C@@H](Cc1ccccc1)[C@@H](O)[C@H](CO)[C@H](Cc1ccccc1)NC(=O)[C@@H](NC(=O)CCc1nc2ccccc2[nH]1)C(C)(C)C` , give the reported Ki.
9

Given `CC(C)[C@H](NC(=O)OCc1ccccc1)C(=O)N[C@@H](Cc1ccccc1)[C@H](O)[C@@H](CO)[C@H](Cc1ccccc1)NC(=O)OC(C)(C)C` , state its recorded Ki.
3700
